The reported measurements were obtained from patent US20250263376A1.

- Tested on: primary melanocytes
- assayOverview: Safety, MTT test in primary melanocytes
- Type: cell-based
- setupConditions: 100 μM, 48 hours
- From the text: In order to test the safety of the compounds, both normal human cells were used: keratinocytes (HaCaT), fibroblasts (BJ), primary melanocytes that occur in the skin, as well as human cancer cells: the hepatocarcinoma line HepG2 and the neuroblastoma line SH-SY5Y, which are considered a model for the assessment of hepatocytotoxicity and neurocytotoxicity. […] The absorbance at 570 nm, which corresponds to the absorption maximum for the product, is directly proportional to cell viability. […]
experimentalEndpoint: MTT, Primary melanocytes

Previously resolved entries follow.
• O=C(/C=C/c1ccc(Cl)cc1)NCCO [H-427/21] = 102.20 ± 2.24 % of solvent control
• O=C(/C=C/c1ccc(Cl)cc1)NCCCO [H-330/21] = 101.42 ± 2.21 % of solvent control
• O=C(/C=C/c1ccc(Cl)cc1)NCCCCCO [Compound A-111] = 104.51 ± 1.19 % of solvent control
• Cc1ccc(/C=C/C(=O)NCCCCCO)cc1 [H-415/21] = 103.27 ± 1.88 % of solvent control

Requested read-out: MTT, Primary melanocytes. Entry: O=C(/C=C/c1ccccc1)NCCCCCO [Compound A-133]
103.69 ± 2.57 % of solvent control
